B1: library; numbered along this chain (parent)
chain: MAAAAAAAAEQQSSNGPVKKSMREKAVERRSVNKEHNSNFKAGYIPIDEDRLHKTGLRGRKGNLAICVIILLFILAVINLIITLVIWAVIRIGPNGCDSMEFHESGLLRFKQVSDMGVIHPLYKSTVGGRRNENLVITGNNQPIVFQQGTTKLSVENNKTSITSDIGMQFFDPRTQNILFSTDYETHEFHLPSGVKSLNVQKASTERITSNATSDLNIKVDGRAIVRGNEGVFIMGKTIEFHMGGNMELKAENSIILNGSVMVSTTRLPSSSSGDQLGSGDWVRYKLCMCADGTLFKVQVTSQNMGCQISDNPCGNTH

Variants of: B1
ASSAY_NOTES: SGCB cell-surface expression functional score (HA stain, bin4 vs bin1, normalised to synonymous) (log10 ratio); higher = more cell-surface SGCB (functional)
Reported SGCB cell-surface expression functional score (log10) values follow for various variants

Examples from the recorded data:
{"MUTANT_CODE": "Y184V", "RECORDED_VALUE": -2.52}
{"MUTANT_CODE": "I256W", "RECORDED_VALUE": -0.179}
{"MUTANT_CODE": "S38D", "RECORDED_VALUE": 0.3}
{"MUTANT_CODE": "M262E", "RECORDED_VALUE": 0.65}
{"MUTANT_CODE": "M235Y", "RECORDED_VALUE": 0.92}
{"MUTANT_CODE": "K196L", "RECORDED_VALUE": -0.57}
{"MUTANT_CODE": "F233L", "RECORDED_VALUE": 0.47}
{"MUTANT_CODE": "I234P", "RECORDED_VALUE": -0.22}

Kindly consider the entry below.
Consider the variant shown here: R58M What is its recorded SGCB cell-surface expression functional score (log10)? -0.15
